- Tested on: Streptococcus pyogenes ATCC 8668 LRP 34
- TEST_DESCRIPTION: Minimum bactericidal concentration (MBC)
- Assay type: cell-based
Below is a list of entries, each paired with its recorded MBC/MIC value.

Query: Read the entry CC[C@H]1OC(=O)[C@H](C)[C@@H](O[C@H]2C[C@H](OC)[C@@H](O)[C@H](C)O2)[C@H](C)[C@@H](O[C@@H]2O[C@H](C)C[C@H](N(C)C)[C@H]2O)[C@](C)(O)C[C@](C)(F)C(=O)[C@H](C)[C@@H](O)[C@H]1C [P-80204] and write its reported MBC/MIC.
Result: 8

Query: Read the entry CO[C@H]1C[C@H](O[C@H]2[C@H](C)[C@@H](O[C@@H]3O[C@H](C)C[C@H](N(C)C)[C@H]3O)[C@@H](C)C[C@@]3(CO3)C(=O)[C@H](C)[C@@H](O)[C@@H](C)[C@@H](C)OC(=O)[C@@H]2C)O[C@@H](C)[C@@H]1O [Oleandomycin, reference compound] and write its reported MBC/MIC.
Result: 16

Next:
Query: Read the entry CC[C@H]1OC(=O)[C@H](C)[C@@H](O[C@H]2C[C@@](C)(OC)[C@@H](O)[C@H](C)O2)[C@H](C)[C@@H](O[C@@H]2O[C@H](C)C[C@H](N(C)C)[C@H]2O)[C@](C)(O)C[C@](C)(F)C(=O)[C@H](C)[C@@H](O)[C@H]1C [P-80203, (8S)-8-fluoroerythromycin B] and write its reported MBC/MIC.
Result: 8

Query: Read the entry CC[C@H]1OC(=O)[C@H](C)[C@@H](O[C@H]2C[C@@](C)(O)[C@@H](O)[C@H](C)O2)[C@H](C)[C@@H](O[C@@H]2O[C@H](C)C[C@H](N(C)C)[C@H]2O)[C@](C)(O)C[C@](C)(F)C(=O)[C@H](C)[C@@H](O)[C@]1(C)O [P-80205, (8S)-8-fluoroerythromycin C] and write its reported MBC/MIC.
Result: 16

----------
- TEST_DESCRIPTION: Serum concentrations in the rat after oral administration
- Format: in vivo
- ASSAY_SETUP: rat, in vivo, po, 100 mg/kg, 100 mg/kg per os; 4 hours; read-out: Serum concentration, average
REPORTED_METRIC: concentration at 4 h (ng/mL)
Use ng/mL as the unit, but write only the number.

Query: Read the entry CC[C@H]1OC(=O)[C@H](C)[C@@H](O[C@H]2C[C@@](C)(OC)[C@@H](O)[C@H](C)O2)[C@H](C)[C@@H](O[C@@H]2O[C@H](C)C[C@H](N(C)C)[C@H]2O)[C@](C)(O)C[C@](C)(F)C(=O)[C@H](C)[C@@H](O)[C@]1(C)O [P-80206, (8S)-8-fluoroerythromycin A] and write its reported concentration at 4 h.
Result: 2080

----------
- Tested on: Streptococcus pyogenes ATCC 8668 LRP 34
- TEST_DESCRIPTION: Bacteriostatic power in solid medium (MIC)
- Format: cell-based
- ASSAY_SETUP: Streptococcus pyogenes, ATCC8668, read-out: Minimum inhibiting concentration
REPORTED_METRIC: MIC
Remember to follow the number with its unit.

Example cases with answers are listed next.
Query: Read the entry CC[C@H]1OC(=O)[C@H](C)[C@@H](O[C@H]2C[C@H](OC)[C@@H](O)[C@H](C)O2)[C@H](C)[C@@H](O[C@@H]2O[C@H](C)C[C@H](N(C)C)[C@H]2O)[C@](C)(O)C[C@](C)(F)C(=O)[C@H](C)[C@@H](O)[C@]1(C)O [P-80207] and write its reported MIC.
Result: 0.049 µg/mL

Query: Read the entry CC[C@H]1OC(=O)[C@H](C)[C@@H](O[C@H]2C[C@H](OC)[C@@H](O)[C@H](C)O2)[C@H](C)[C@@H](O[C@@H]2O[C@H](C)C[C@H](N(C)C)[C@H]2O)[C@](C)(O)C[C@](C)(F)C(=O)[C@H](C)[C@@H](O)[C@H]1C [P-80204] and write its reported MIC.
Result: 0.049 µg/mL

Query: Read the entry CC[C@H]1OC(=O)[C@H](C)[C@@H](O[C@H]2C[C@@](C)(OC)[C@@H](O)[C@H](C)O2)[C@H](C)[C@@H](O[C@@H]2O[C@H](C)C[C@H](N(C)C)[C@H]2O)[C@](C)(O)C[C@@H](C)C(=O)[C@H](C)[C@@H](O)[C@]1(C)O [Erythromycin A, reference compound] and write its reported MIC.
Result: 0.012 µg/mL

Next:
Query: Read the entry CC[C@H]1OC(=O)[C@H](C)[C@@H](O[C@H]2C[C@@](C)(OC)[C@@H](O)[C@H](C)O2)[C@H](C)[C@@H](O[C@@H]2O[C@H](C)C[C@H](N(C)C)[C@H]2O)[C@](C)(O)C[C@](C)(F)C(=O)[C@H](C)[C@@H](O)[C@]1(C)O [P-80206, (8S)-8-fluoroerythromycin A] and write its reported MIC.
Result: 0.012 µg/mL

----------
- Tested on: Corynebacterium diphteriae LRP 24
- TEST_DESCRIPTION: Minimum bactericidal concentration (MBC)
- Assay type: cell-based
- ASSAY_SETUP: Corynebacterium, LRP24, read-out: Minimum bactericidal concentration (MBC)
Below is a list of entries, each paired with its recorded MBC value.
Use µg/mL as the unit, but write only the number.

Example cases with answers are listed next.
Query: Read the entry `CC[C@H]1OC(=O)[C@H](C)[C@@H](O[C@H]2C[C@H](OC)[C@@H](O)[C@H](C)O2)[C@H](C)[C@@H](O[C@@H]2O[C@H](C)C[C@H](N(C)C)[C@H]2O)[C@](C)(O)C[C@](C)(F)C(=O)[C@H](C)[C@@H](O)[C@]1(C)O` and write its reported MBC.
Result: 0.195

Query: Read the entry CC[C@H]1OC(=O)[C@H](C)[C@@H](O[C@H]2C[C@@](C)(OC)[C@@H](O)[C@H](C)O2)[C@H](C)[C@@H](O[C@@H]2O[C@H](C)C[C@H](N(C)C)[C@H]2O)[C@](C)(O)C[C@@H](C)C(=O)[C@H](C)[C@@H](O)[C@]1(C)O [Erythromycin A, reference compound] and write its reported MBC.
Result: 0.049

Query: Read the entry CC[C@H]1OC(=O)[C@H](C)[C@@H](O[C@H]2C[C@@](C)(OC)[C@@H](O)[C@H](C)O2)[C@H](C)[C@@H](O[C@@H]2O[C@H](C)C[C@H](N(C)C)[C@H]2O)[C@](C)(O)C[C@@H](C)C(=O)[C@H](C)[C@@H](O)[C@H]1C [Erythromycin B, reference compound] and write its reported MBC.
Result: 0.195

Alright, here's another molecule for you.
Query: Read the entry `CC[C@H]1OC(=O)[C@H](C)[C@@H](O[C@H]2C[C@H](OC)[C@@H](O)[C@H](C)O2)[C@H](C)[C@@H](O[C@@H]2O[C@H](C)C[C@H](N(C)C)[C@H]2O)[C@](C)(O)C[C@](C)(F)C(=O)[C@H](C)[C@@H](O)[C@H]1C` and write its reported MBC.
Result: 0.39

----------
- Test system: Corynebacterium diphteriae LRP 24
- TEST_DESCRIPTION: Minimum bactericidal concentration (MBC)
- Assay type: cell-based
- ASSAY_SETUP: Corynebacterium, LRP24, read-out: Minimum bactericidal concentration (MBC)
REPORTED_METRIC: MBC (µg/mL)
Use µg/mL as the unit, but write only the number.

Query: Read the entry CO[C@H]1C[C@H](O[C@H]2[C@H](C)[C@@H](O[C@@H]3O[C@H](C)C[C@H](N(C)C)[C@H]3O)[C@@H](C)C[C@@]3(CO3)C(=O)[C@H](C)[C@@H](O)[C@@H](C)[C@@H](C)OC(=O)[C@@H]2C)O[C@@H](C)[C@@H]1O [Oleandomycin, reference compound] and write its reported MBC.
Result: 0.39

Alright, here's another compound for you.
Query: Read the entry `CC[C@H]1OC(=O)[C@H](C)[C@@H](O[C@H]2C[C@@](C)(OC)[C@@H](O)[C@H](C)O2)[C@H](C)[C@@H](O[C@@H]2O[C@H](C)C[C@H](N(C)C)[C@H]2O)[C@](C)(O)C[C@](C)(F)C(=O)[C@H](C)[C@@H](O)[C@]1(C)O` and write its reported MBC.
Result: 0.097

----------
- Tested on: Streptococcus pneumoniae ATCC 6303 LRP 35
- TEST_DESCRIPTION: Minimum bactericidal concentration (MBC)
- Format: cell-based
REPORTED_METRIC: MBC/MIC
Response field accepts a number only; no unit should be typed.

Query: Write down measured MBC/MIC (Streptococcus pneumoniae ATCC 6303 LRP 35) for this compound. CC[C@H]1OC(=O)[C@H](C)[C@@H](O[C@H]2C[C@H](OC)[C@@H](O)[C@H](C)O2)[C@H](C)[C@@H](O[C@@H]2O[C@H](C)C[C@H](N(C)C)[C@H]2O)[C@](C)(O)C[C@](C)(F)C(=O)[C@H](C)[C@@H](O)[C@H]1C [P-80204]
Result: 2

Next:
Query: Write down measured MBC/MIC (Streptococcus pneumoniae ATCC 6303 LRP 35) for this compound. CC[C@H]1OC(=O)[C@H](C)[C@@H](O[C@H]2C[C@@](C)(O)[C@@H](O)[C@H](C)O2)[C@H](C)[C@@H](O[C@@H]2O[C@H](C)C[C@H](N(C)C)[C@H]2O)[C@](C)(O)C[C@](C)(F)C(=O)[C@H](C)[C@@H](O)[C@]1(C)O [P-80205, (8S)-8-fluoroerythromycin C]
Result: 2

Taken from patent US4439426A.
